Target: Rat IR (rat, UniProt P15127 27-1383)
Sequence (P15127 27-1383): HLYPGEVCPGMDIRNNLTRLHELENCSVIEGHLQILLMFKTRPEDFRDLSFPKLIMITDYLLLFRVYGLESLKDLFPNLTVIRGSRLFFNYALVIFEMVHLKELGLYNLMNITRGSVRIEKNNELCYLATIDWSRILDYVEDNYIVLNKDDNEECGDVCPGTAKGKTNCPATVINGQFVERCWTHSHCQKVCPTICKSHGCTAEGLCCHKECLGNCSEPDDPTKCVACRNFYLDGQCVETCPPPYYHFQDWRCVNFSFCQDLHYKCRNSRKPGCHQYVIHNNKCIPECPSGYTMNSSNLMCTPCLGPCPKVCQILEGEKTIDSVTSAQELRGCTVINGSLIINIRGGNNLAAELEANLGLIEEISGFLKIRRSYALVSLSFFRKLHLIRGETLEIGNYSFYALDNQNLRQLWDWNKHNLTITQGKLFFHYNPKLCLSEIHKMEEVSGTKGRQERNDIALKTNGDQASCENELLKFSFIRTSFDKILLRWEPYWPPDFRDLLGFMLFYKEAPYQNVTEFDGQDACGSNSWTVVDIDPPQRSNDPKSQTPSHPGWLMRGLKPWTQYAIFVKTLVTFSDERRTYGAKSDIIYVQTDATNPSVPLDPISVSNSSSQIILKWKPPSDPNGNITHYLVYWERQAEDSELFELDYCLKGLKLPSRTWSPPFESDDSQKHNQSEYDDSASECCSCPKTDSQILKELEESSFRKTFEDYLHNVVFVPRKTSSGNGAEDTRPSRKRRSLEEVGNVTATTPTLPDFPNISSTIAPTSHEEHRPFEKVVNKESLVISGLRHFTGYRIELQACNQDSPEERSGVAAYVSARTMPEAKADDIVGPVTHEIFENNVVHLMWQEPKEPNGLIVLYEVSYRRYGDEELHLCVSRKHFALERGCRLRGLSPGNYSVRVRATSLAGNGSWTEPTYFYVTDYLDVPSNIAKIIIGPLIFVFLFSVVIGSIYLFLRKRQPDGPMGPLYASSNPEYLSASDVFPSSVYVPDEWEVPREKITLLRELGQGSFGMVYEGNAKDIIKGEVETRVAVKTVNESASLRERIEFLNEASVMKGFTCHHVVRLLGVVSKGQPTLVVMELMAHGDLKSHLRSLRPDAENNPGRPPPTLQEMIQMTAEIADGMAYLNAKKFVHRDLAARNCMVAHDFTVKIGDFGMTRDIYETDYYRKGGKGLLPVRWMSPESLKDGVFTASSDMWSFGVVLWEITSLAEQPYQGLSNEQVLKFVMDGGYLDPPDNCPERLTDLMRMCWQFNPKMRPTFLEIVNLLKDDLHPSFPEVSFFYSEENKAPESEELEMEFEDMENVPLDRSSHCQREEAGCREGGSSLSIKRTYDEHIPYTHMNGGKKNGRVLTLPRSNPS
Test: cell-based or functional assay
Reported Metric: Rat IR phosphorylation [EC50 nM] mean (nM)
Dear colleague, please return just the value in nM, with no unit written.

Worked cases, answers included:
1. scl-Fc fusion protein INS011 (Fc fusion) SFVNQHLCGSHLVEALHLVCGERGFAYTPKTGSYPGGVGIVEQCCTSICSLEQLENYCGGEAEDLQVGQVELGGGPGAGSLQPEGSLQGGPSVFLFPPKPKDTLMISRTPEVTCVVVDVSHEDPEVKFNWYVDGVEVHNAKTKPREEQYNSTYRVVSVLTVLHQDWLNGKEYKCKVSNKALPAPIEKTISKAKGQPREPQVYTLPPSRDELTKNQVSLTCLVKGFYPSDIAVEWESNGQPENNYKTTPPVLDSDGSFFLYSKLTVDKSRWQQGNVFSCSVMHEALHNHYTQKSLSLSPGGGGGSAESKYGPPCPPCPA    169
2. scl-Fc fusion protein INS002 (Fc fusion) FVNQHLCGSHLVEALYLVCGERGFFYTDKTEEYPGDVGIVEQCCTSICSLEQLENYCGGEAEDLQVGQVELGGGPGAGSLQPLALEGSLQGGPSVFLFPPKPKDTLMISRTPEVTCVVVDVSHEDPEVKFNWYVDGVEVHNAKTKPREEQYNSTYRVVSVLTVLHQDWLNGKEYKCKVSNKALPAPIEKTISKAKGQPREPQVYTLPPSRDELTKNQVSLTCLVKGFYPSDIAVEWESNGQPENNYKTTPPVLDSDGSFFLYSKLTVDKSRWQQGNVFSCSVMHEALHNHYTQKSLSLSPGGGGGSAESKYGPPCPPCPA    32.1
3. scl-Fc fusion protein INS006 (Fc fusion) SFVNQHLCGSHLVEALELVCGERGFHYTDKTEEYPGDVGIVEQCCTSICSLEQLENYCGGEAEDLQVGQVELGGGPGAGSLQPEGSLQGGPSVFLFPPKPKDTLMISRTPEVTCVVVDVSHEDPEVKFNWYVDGVEVHNAKTKPREEQYNSTYRVVSVLTVLHQDWLNGKEYKCKVSNKALPAPIEKTISKAKGQPREPQVYTLPPSRDELTKNQVSLTCLVKGFYPSDIAVEWESNGQPENNYKTTPPVLDSDGSFFLYSKLTVDKSRWQQGNVFSCSVMHEALHNHYTQKSLSLSPGGGGGSAESKYGPPCPPCPA    286

// below: Rat IR phosphorylation [EC50 nM] mean requested for another binder
# query: Rat IR phosphorylation [EC50 nM] mean of entry scl-Fc fusion protein INS016 (Fc fusion) FVNQHLCGSHLVEALHLVCGERGFHYTPKTGSYPGGVGIVEQCCTSICSLSQLENYCGGEAEDLQVGQVELGGGPGAGSLQPEGSLQGGPSVFLFPPKPKDTLMISRTPEVTCVVVDVSHEDPEVKFNWYVDGVEVHNAKTKPREEQYNSTYRVVSVLTVLHQDWLNGKEYKCKVSNKALPAPIEKTISKAKGQPREPQVYTLPPSRDELTKNQVSLTCLVKGFYPSDIAVEWESNGQPENNYKTTPPVLDSDGSFFLYSKLTVDKSRWQQGNVFSCSVMHEALHNHYTQKSLSLSPGGGGGSAESKYGPPCPPCPA
85.5

Values were extracted from patent US20260248892A1.
